Biological target: Adrenergic receptor alpha-1 (Rattus norvegicus, UniProt P15823+P23944+P43140)
Experiment: Binding affinity towards alpha-1 adrenergic receptor in rat cortex membrane using [3H]-prazosin radioligand
Assay type: cell membranes
Please provide measured Ki for the entries that follow.
// return numeric value only (unit: nM, not printed)

Exercise: Output Ki of COc1ccccc1N1CCN(CCCn2nc(N3CCN(C(=O)c4ccco4)CC3)ccc2=O)CC1
Solution: 64.5

Exercise: Output Ki of COc1ccccc1OCCN1CCN(c2cnn(CCCCCN3CCN(c4ccccc4OC)CC3)c(=O)c2Cl)CC1
Solution: 3.9

Exercise: Output Ki of COc1ccccc1OCCN1CCN(c2ccc(=O)n(CCCCCCN3CCN(c4ccccc4Cl)CC3)n2)CC1
Solution: 8.4

Exercise: Output Ki of COc1ccccc1N1CCN(CCn2ncc(N3CCN(C(=O)c4ccco4)CC3)c(Cl)c2=O)CC1
Solution: 33

Exercise: Output Ki of COc1ccc(Cl)cc1N1CCN(CCn2nc(-c3ccccc3)c3c(C)onc3c2=O)CC1
Solution: 15.6

Exercise: Output Ki of COc1ccccc1OCCN1CCN(c2ccc(=O)n(CCCCN3CCN(c4ccccc4Cl)CC3)n2)CC1
Solution: 0.8

Exercise: Output Ki of O=C(c1ccco1)N1CCN(c2cnn(CCCCN3CCN(c4ccccc4Cl)CC3)c(=O)c2Cl)CC1
Solution: 19

Exercise: Output Ki of COc1ccccc1OCCN1CCN(c2ccc(=O)n(CCCCN3CCN(c4ccccc4OC)CC3)n2)CC1
Solution: 0.6

Exercise: Output Ki of COc1ccc(Cl)cc1N1CCN(CCCn2nc(-c3ccccc3)c3c(C)onc3c2=O)CC1
Solution: 7.9

Exercise: Output Ki of COc1ccccc1OCCN1CCN(c2cnn(CCCCCCCN3CCN(c4ccccc4Cl)CC3)c(=O)c2Cl)CC1
Solution: 2.7

Exercise: Output Ki of COc1ccccc1N1CCN(CCCn2ncc(N3CCN(C(=O)c4ccco4)CC3)c(Cl)c2=O)CC1
Solution: 20.4

Exercise: Output Ki of COc1ccccc1OCCN1CCN(c2ccc(=O)n(CCCCCCN3CCN(c4ccccc4OC)CC3)n2)CC1
Solution: 7

Exercise: Output Ki of COc1ccccc1OCCN1CCN(c2cnn(CCCN3CCN(c4ccccc4Cl)CC3)c(=O)c2Cl)CC1
Solution: 27.8

Exercise: Output Ki of COc1ccccc1N1CCN(CCCCCCCn2nc(N3CCN(C(=O)c4ccco4)CC3)ccc2=O)CC1
Solution: 54.7

Exercise: Output Ki of COc1ccccc1N1CCN(CCCCCn2ncc(N3CCN(C(=O)c4ccco4)CC3)c(Cl)c2=O)CC1
Solution: 1.9

Exercise: Output Ki of COc1ccccc1N1CCN(Cn2nc(-c3ccccc3)c3c(C)onc3c2=O)CC1
Solution: 2308

Exercise: Output Ki of COc1ccccc1OCCN1CCN(c2cnn(CCCCCCCCN3CCN(c4ccccc4OC)CC3)c(=O)c2Cl)CC1
Solution: 3.5

Exercise: Output Ki of COc1ccccc1N1CCN(CCCCn2ncc(N3CCN(C(=O)c4ccco4)CC3)c(Cl)c2=O)CC1
Solution: 33.5

----------
Biological target: Adrenergic receptor alpha-2 (Rattus norvegicus, UniProt P22086+P19328+P22909)
Experiment: Binding affinity towards alpha-2 adrenergic receptor in rat cortex membrane using [3H]rauwolscine radioligand
Assay type: cell membranes
Please provide measured Ki for the entries that follow.
// return numeric value only (unit: µM, not printed)

Exercise: Output Ki of COc1ccccc1N1CCN(CCCCCCCn2nc(N3CCN(C(=O)c4ccco4)CC3)ccc2=O)CC1
Solution: 0.096

Exercise: Output Ki of COc1ccccc1OCCN1CCN(c2cnn(CCN3CCN(c4ccccc4OC)CC3)c(=O)c2Cl)CC1
Solution: 0.409

Exercise: Output Ki of COc1ccccc1OCCN1CCN(c2ccc(=O)n(CCCCCN3CCN(c4ccccc4Cl)CC3)n2)CC1
Solution: 0.138

Exercise: Output Ki of COc1ccccc1OCCN1CCN(c2cnn(CCCCCCCCN3CCN(c4ccccc4Cl)CC3)c(=O)c2Cl)CC1
Solution: 0.0228

Exercise: Output Ki of COc1ccccc1OCCN1CCN(c2cnn(CCCCCN3CCN(c4ccccc4OC)CC3)c(=O)c2Cl)CC1
Solution: 0.015

Exercise: Output Ki of O=C(c1ccco1)N1CCN(c2ccc(=O)n(CCCCN3CCN(c4ccccc4Cl)CC3)n2)CC1
Solution: 0.024

Exercise: Output Ki of O=C(c1ccco1)N1CCN(c2cnn(CCCCCCCN3CCN(c4ccccc4Cl)CC3)c(=O)c2Cl)CC1
Solution: 0.0362

Exercise: Output Ki of COc1ccccc1OCCN1CCN(c2cnn(CCCCCCN3CCN(c4ccccc4Cl)CC3)c(=O)c2Cl)CC1
Solution: 0.0252

----------
Target: Adrenergic receptor alpha-1 (Rattus norvegicus, UniProt P15823+P23944+P43140)
Sequence (P15823 whole entry): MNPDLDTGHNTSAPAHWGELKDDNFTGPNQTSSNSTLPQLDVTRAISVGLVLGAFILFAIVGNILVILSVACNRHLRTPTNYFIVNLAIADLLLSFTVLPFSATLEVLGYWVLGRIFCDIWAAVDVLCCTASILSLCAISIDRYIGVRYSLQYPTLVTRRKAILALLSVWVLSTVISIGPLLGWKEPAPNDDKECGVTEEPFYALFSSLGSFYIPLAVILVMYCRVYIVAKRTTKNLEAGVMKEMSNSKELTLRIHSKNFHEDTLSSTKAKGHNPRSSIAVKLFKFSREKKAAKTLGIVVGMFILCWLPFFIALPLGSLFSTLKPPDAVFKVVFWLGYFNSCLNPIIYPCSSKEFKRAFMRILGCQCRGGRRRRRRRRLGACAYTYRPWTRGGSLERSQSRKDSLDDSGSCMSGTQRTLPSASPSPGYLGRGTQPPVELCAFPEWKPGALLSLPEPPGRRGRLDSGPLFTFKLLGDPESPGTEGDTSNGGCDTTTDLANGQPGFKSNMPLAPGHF
Sequence (P23944 whole entry): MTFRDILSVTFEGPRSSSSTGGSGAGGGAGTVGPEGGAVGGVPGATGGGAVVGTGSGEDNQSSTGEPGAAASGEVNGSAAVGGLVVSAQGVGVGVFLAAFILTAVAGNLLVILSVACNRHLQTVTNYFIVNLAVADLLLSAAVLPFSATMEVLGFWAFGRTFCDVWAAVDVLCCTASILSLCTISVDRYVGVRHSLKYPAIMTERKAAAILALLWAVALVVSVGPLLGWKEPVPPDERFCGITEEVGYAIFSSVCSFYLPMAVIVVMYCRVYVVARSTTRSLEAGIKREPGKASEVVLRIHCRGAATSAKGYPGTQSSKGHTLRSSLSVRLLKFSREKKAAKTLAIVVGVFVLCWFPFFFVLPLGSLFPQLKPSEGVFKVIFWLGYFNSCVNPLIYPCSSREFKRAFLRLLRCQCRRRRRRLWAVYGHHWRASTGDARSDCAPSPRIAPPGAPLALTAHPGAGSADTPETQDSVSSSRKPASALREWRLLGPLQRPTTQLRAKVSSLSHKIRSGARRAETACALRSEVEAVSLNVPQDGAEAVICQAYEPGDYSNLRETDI
Sequence (P43140 whole entry): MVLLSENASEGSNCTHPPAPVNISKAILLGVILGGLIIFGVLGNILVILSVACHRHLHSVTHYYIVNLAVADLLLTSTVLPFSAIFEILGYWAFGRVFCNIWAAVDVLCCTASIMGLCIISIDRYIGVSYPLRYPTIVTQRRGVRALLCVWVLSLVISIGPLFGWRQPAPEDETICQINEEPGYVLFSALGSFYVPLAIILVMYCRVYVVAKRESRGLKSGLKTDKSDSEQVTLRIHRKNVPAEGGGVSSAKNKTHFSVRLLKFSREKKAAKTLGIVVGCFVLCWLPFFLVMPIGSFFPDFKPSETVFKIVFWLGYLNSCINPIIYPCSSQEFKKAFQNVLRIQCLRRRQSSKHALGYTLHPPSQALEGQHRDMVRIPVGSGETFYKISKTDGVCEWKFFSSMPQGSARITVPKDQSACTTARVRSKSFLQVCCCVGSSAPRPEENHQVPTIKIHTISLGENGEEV
Test: Binding affinity towards alpha-1 adrenergic receptor in rat cortex membrane using [3H]-prazosin radioligand
Type: cell membranes
Please provide measured Ki for the entries that follow.
// return numeric value only (unit: nM, not printed)

Exercise: Output Ki of COc1ccccc1OCCN1CCN(c2cnn(CCCCCCN3CCN(c4ccccc4Cl)CC3)c(=O)c2Cl)CC1
Solution: 4.2

Exercise: Output Ki of O=C(c1ccco1)N1CCN(c2cnn(CCCCCN3CCN(c4ccccc4Cl)CC3)c(=O)c2Cl)CC1
Solution: 3.6

Exercise: Output Ki of O=C(c1ccco1)N1CCN(c2cnn(CCCCCCCN3CCN(c4ccccc4Cl)CC3)c(=O)c2Cl)CC1
Solution: 11.5

Exercise: Output Ki of COc1ccc(Cl)cc1N1CCN(CCn2nc(-c3ccccc3)c(C(C)=O)c(N)c2=O)CC1
Solution: 42.7

Exercise: Output Ki of COc1ccccc1N1CCN(CCCCCn2nc(N3CCN(C(=O)c4ccco4)CC3)ccc2=O)CC1
Solution: 43.7

Exercise: Output Ki of O=C(c1ccco1)N1CCN(c2ccc(=O)n(CCCN3CCN(c4ccccc4Cl)CC3)n2)CC1
Solution: 12.8

Exercise: Output Ki of O=C(c1ccco1)N1CCN(c2ccc(=O)n(CCCCCCN3CCN(c4ccccc4Cl)CC3)n2)CC1
Solution: 5.9

Exercise: Output Ki of COc1ccccc1OCCN1CCN(c2ccc(=O)n(CCN3CCN(c4ccccc4Cl)CC3)n2)CC1
Solution: 18

Exercise: Output Ki of COc1ccccc1N1CCN(CCn2nc(N3CCN(C(=O)c4ccco4)CC3)ccc2=O)CC1
Solution: 94.5

Exercise: Output Ki of COc1ccccc1OCCN1CCN(c2cnn(CCCCCCN3CCN(c4ccccc4OC)CC3)c(=O)c2Cl)CC1
Solution: 1.5

Exercise: Output Ki of COc1ccccc1OCCN1CCN(c2cnn(CCCCCCCCN3CCN(c4ccccc4Cl)CC3)c(=O)c2Cl)CC1
Solution: 5.6

Exercise: Output Ki of O=C(c1ccco1)N1CCN(c2cnn(CCN3CCN(c4ccccc4Cl)CC3)c(=O)c2Cl)CC1
Solution: 3.9

Exercise: Output Ki of COc1ccccc1OCCN1CCN(c2cnn(CCCN3CCN(c4ccccc4OC)CC3)c(=O)c2Cl)CC1
Solution: 14.5

Exercise: Output Ki of COc1ccccc1OCCN1CCN(c2cnn(CCCCN3CCN(c4ccccc4OC)CC3)c(=O)c2Cl)CC1
Solution: 4.3

Exercise: Output Ki of COc1ccccc1OCCN1CCN(c2ccc(=O)n(CCCCCN3CCN(c4ccccc4Cl)CC3)n2)CC1
Solution: 7

Exercise: Output Ki of COc1ccccc1N1CCN(CCn2nc(-c3ccccc3)c3c(C)onc3c2=O)CC1
Solution: 147

Exercise: Output Ki of COc1ccccc1N1CCN(Cn2nc(-c3ccccc3)c(C(C)=O)c(N)c2=O)CC1
Solution: 2395

Exercise: Output Ki of O=C(c1ccco1)N1CCN(c2ccc(=O)n(CCCCN3CCN(c4ccccc4Cl)CC3)n2)CC1
Solution: 7.9

Exercise: Output Ki of COc1ccccc1OCCN1CCN(c2cnn(CCCCN3CCN(c4ccccc4Cl)CC3)c(=O)c2Cl)CC1
Solution: 10

Exercise: Output Ki of COc1ccccc1N1CCN(CC(=O)c2c(-c3ccccc3)nn(C)c(=O)c2N)CC1
Solution: 516

Exercise: Output Ki of COc1ccccc1OCCN1CCN(c2ccc(=O)n(CCCCCCCN3CCN(c4ccccc4Cl)CC3)n2)CC1
Solution: 15

Exercise: Output Ki of COc1ccccc1N1CCN(CCCn2nc(-c3ccccc3)c(C(C)=O)c(N)c2=O)CC1
Solution: 46.7

Exercise: Output Ki of COc1ccccc1N1CCN(CCCCCCCn2ncc(N3CCN(C(=O)c4ccco4)CC3)c(Cl)c2=O)CC1
Solution: 1.9

Exercise: Output Ki of O=C(c1ccco1)N1CCN(c2ccc(=O)n(CCCCCCCN3CCN(c4ccccc4Cl)CC3)n2)CC1
Solution: 5.6

Exercise: Output Ki of COc1ccccc1OCCN1CCN(c2cnn(CCN3CCN(c4ccccc4Cl)CC3)c(=O)c2Cl)CC1
Solution: 58.8

Exercise: Output Ki of O=C(c1ccco1)N1CCN(c2ccc(=O)n(CCN3CCN(c4ccccc4Cl)CC3)n2)CC1
Solution: 34

Exercise: Output Ki of COc1ccccc1OCCN1CCN(c2cnn(CCCCCN3CCN(c4ccccc4Cl)CC3)c(=O)c2Cl)CC1
Solution: 4.5

Exercise: Output Ki of COc1ccccc1N1CCN(CCCCCCn2ncc(N3CCN(C(=O)c4ccco4)CC3)c(Cl)c2=O)CC1
Solution: 4.1

Exercise: Output Ki of COc1ccccc1OCCN1CCN(c2ccc(=O)n(CCN3CCN(c4ccccc4OC)CC3)n2)CC1
Solution: 38

Exercise: Output Ki of COc1ccccc1OCCN1CCN(c2ccc(=O)n(CCCCCCCN3CCN(c4ccccc4OC)CC3)n2)CC1
Solution: 2.3

Exercise: Output Ki of COc1ccccc1N1CCN(CCCCCCn2nc(N3CCN(C(=O)c4ccco4)CC3)ccc2=O)CC1
Solution: 17.8
